Assignment: determine reported pKi for the given molecules.
# TARGET_OF_ASSAY: UGT1A9 (Homo sapiens, UniProt O60656)
# Sequence (O60656 26-530): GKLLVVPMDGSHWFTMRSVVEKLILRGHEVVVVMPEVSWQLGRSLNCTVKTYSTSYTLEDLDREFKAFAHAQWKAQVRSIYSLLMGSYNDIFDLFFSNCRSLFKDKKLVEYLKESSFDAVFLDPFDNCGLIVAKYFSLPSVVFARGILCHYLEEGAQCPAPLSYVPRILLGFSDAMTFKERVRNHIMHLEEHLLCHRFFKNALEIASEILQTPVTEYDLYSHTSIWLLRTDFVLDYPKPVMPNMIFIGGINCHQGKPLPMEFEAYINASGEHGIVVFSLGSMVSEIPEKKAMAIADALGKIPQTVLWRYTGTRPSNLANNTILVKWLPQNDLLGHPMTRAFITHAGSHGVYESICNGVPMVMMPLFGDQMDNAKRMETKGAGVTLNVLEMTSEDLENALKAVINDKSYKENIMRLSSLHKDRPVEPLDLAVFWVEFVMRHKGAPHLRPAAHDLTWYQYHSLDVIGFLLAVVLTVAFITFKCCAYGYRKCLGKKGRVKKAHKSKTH
# RUN_DESCRIPTION: 4-MU glucuronidation, UPLC-UV, Lineweaver-Burk slope replot
# Type: biochemical
One number for each entry, as −log10 of the molar value.

Request: Given the molecule CCCCOC(=O)c1ccccc1C(=O)OCc1ccccc1 , what is its reported pKi?
Result: 6.08

Request: What pKi value was documented for this molecule, CC(C)COC(=O)c1ccccc1C(=O)OCC(C)C ?
Result: 5.55

Items follow; give pKi for each.
1. CCCCOC(=O)c1ccccc1C(=O)OCCCC
2. CC(C)CCOC(=O)c1ccccc1C(=O)OCCC(C)C
3. CCCCOCCOC(=O)c1ccccc1C(=O)OCCOCCCC
4. CCCCCOC(=O)c1ccccc1C(=O)OCCCCC

Result:
4.64
5.25
4.13
5.76

---

# TARGET_OF_ASSAY: UGT1A6 (Homo sapiens, UniProt P19224)
# Sequence (P19224 27-532): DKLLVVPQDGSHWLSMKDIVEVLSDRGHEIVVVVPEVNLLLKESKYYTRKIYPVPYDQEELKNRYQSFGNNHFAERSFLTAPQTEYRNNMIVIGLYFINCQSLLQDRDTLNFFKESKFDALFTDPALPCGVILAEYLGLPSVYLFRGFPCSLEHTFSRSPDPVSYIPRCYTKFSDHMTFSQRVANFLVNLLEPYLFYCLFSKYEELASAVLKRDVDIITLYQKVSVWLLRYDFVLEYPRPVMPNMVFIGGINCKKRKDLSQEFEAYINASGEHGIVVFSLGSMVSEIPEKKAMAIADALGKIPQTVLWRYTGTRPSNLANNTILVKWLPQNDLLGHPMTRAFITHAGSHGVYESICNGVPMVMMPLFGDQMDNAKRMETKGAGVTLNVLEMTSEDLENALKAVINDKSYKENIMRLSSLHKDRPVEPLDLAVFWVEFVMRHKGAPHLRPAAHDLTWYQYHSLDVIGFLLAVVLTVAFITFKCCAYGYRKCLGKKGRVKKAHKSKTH
# RUN_DESCRIPTION: 4-MU glucuronidation, UPLC-UV, Lineweaver-Burk slope replot
# Type: biochemical
PROPERTY: pKi
Answers are plain numbers, as −log10 of the molar value.

Request: Suppose we examine the compound CCCCOC(=O)c1ccccc1C(=O)OCc1ccccc1 ; what pKi value has been reported?
Result: 4.28

---
Request: What value of pKi has been recorded for this entry: CCCCOCCOC(=O)c1ccccc1C(=O)OCCOCCCC
Result: 4.81

---

# TARGET_OF_ASSAY: UGT1A9 (Homo sapiens, UniProt O60656)
# RUN_DESCRIPTION: 4-MU glucuronidation, UPLC-UV, dose response
# Assay type: biochemical
PROPERTY: IC50 (µM)
Numbers only, in µM.

Answered cases to consult:
Request: Tell me the measured IC50 of CC(C)CCOC(=O)c1ccccc1C(=O)OCCC(C)C , please.
Result: 14.7

Request: Please report the recorded IC50 for CCCCOC(=O)c1ccccc1C(=O)OCCCC .
Result: 17.6

Request: If you can, please state the reported IC50 value of CC(C)COC(=O)c1ccccc1C(=O)OCC(C)C .
Result: 7.03

Please state IC50 for every compound in the list that follows.
1. CCCCOC(=O)c1ccccc1C(=O)OCc1ccccc1
2. CCCCOCCOC(=O)c1ccccc1C(=O)OCCOCCCC
3. CCCCCOC(=O)c1ccccc1C(=O)OCCCCC

Result:
1: 5.54; 2: 28.3; 3: 18.5

---

# TARGET_OF_ASSAY: UGT1A7 (Homo sapiens)
# Sequence (Q9HAW7 26-530): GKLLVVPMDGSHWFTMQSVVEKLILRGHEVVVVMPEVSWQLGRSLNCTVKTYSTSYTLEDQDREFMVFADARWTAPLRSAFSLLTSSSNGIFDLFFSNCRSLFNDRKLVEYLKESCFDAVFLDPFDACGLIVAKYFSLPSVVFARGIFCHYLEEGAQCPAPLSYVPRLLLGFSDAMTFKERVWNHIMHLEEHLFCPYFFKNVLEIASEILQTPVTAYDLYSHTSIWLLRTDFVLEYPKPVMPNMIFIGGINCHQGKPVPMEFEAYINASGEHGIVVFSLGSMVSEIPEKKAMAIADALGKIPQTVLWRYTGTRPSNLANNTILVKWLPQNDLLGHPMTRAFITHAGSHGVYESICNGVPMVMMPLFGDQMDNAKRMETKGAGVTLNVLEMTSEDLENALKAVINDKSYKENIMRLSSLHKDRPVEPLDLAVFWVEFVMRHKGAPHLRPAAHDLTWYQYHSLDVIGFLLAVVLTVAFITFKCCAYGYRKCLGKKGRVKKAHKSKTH
Field: IC50. Provide a value for each of the compounds that follow.
Answers are plain numbers, in µM.

Below are some compounds; for each one, tell me its IC50.
1. CCCCOCCOC(=O)c1ccccc1C(=O)OCCOCCCC
2. CCCCOC(=O)c1ccccc1C(=O)OCc1ccccc1

Result:
[18.2, 19.5]

---

# TARGET_OF_ASSAY: UGT1A7 (Homo sapiens)
# Sequence (Q9HAW7 26-530): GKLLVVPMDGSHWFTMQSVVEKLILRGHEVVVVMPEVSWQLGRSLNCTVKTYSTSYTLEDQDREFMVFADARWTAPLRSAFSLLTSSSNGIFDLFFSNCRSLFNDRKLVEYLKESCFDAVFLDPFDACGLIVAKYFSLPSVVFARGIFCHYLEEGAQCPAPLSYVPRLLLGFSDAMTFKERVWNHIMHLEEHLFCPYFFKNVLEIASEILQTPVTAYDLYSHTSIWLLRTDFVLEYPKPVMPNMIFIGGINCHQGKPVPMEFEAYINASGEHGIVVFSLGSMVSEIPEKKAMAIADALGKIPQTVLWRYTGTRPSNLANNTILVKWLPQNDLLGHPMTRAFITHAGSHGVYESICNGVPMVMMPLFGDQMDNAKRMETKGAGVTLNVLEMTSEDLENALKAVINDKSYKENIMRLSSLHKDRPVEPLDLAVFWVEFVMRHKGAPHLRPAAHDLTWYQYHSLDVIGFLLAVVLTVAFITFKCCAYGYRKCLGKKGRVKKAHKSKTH
Give Ki for every item shown.
One number for each entry, in µM.

Request: Param readout= Ki; system= UGT1A7 (Homo sapiens); entry= CCCCOC(=O)c1ccccc1C(=O)OCc1ccccc1 ; returns value.
Result: 12.2

***
Request: For UGT1A7 (Homo sapiens), provide Ki of CCCCOCCOC(=O)c1ccccc1C(=O)OCCOCCCC please.
Result: 23.6

---

# TARGET_OF_ASSAY: UGT2B4 (Homo sapiens)
# RUN_DESCRIPTION: 4-MU glucuronidation, UPLC-UV, dose response
# Type: biochemical
Kindly state IC50 for each of the entries shown.
Give bare numbers, in µM.

Request: Quick check: IC50 on UGT2B4 (Homo sapiens), item CCCCOC(=O)c1ccccc1C(=O)OCc1ccccc1 ?
Result: 13.8

Request: GET /values?readout=IC50&system=UGT2B4 (Homo sapiens)&item= CC(C)COC(=O)c1ccccc1C(=O)OCC(C)C
Result: 5.89

---
Request: Hello, I am looking for reported IC50 with UGT2B4 (Homo sapiens) for CCCCOC(=O)c1ccccc1C(=O)OCCCC . Could you help?
Result: 11.9

---

# TARGET_OF_ASSAY: UGT2B4 (Homo sapiens, UniProt P06133)
# Sequence (P06133 24-528): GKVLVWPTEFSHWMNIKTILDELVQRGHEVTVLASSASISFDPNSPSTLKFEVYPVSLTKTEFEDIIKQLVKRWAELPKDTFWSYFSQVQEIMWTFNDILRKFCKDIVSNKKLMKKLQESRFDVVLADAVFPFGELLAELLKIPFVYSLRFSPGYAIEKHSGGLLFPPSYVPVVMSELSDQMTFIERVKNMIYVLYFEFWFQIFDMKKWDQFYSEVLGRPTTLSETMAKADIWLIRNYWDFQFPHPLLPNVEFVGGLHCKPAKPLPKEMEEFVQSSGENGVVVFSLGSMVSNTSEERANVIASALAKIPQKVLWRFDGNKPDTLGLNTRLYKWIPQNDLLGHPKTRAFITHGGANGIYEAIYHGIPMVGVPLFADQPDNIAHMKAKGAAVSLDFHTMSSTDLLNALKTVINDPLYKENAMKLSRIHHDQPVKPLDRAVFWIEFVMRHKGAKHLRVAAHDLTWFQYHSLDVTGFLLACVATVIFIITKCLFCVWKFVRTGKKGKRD
# RUN_DESCRIPTION: 4-MU glucuronidation, UPLC-UV, dose response
# Assay type: biochemical
# TEST_SETTINGS: competitive; 4-MU 1000 μM, UDPGA 5 mM, MgCl2 5 mM, Tris-HCl pH 7.4, 37 °C
PROPERTY: IC50 (µM)
Numbers only, in µM.

Request: I would be grateful if you could share the reported IC50 for C=CCOC(=O)c1ccccc1C(=O)OCC=C .
Result: 14.3
